# measurement-target: T1, integrin αVβ3 (UniProt P06756 31-992; P05106 27-718)
# T1 construct: Coated on the ELISA plate
# T1 sequence (P06756 31-992, chain 1 of 2): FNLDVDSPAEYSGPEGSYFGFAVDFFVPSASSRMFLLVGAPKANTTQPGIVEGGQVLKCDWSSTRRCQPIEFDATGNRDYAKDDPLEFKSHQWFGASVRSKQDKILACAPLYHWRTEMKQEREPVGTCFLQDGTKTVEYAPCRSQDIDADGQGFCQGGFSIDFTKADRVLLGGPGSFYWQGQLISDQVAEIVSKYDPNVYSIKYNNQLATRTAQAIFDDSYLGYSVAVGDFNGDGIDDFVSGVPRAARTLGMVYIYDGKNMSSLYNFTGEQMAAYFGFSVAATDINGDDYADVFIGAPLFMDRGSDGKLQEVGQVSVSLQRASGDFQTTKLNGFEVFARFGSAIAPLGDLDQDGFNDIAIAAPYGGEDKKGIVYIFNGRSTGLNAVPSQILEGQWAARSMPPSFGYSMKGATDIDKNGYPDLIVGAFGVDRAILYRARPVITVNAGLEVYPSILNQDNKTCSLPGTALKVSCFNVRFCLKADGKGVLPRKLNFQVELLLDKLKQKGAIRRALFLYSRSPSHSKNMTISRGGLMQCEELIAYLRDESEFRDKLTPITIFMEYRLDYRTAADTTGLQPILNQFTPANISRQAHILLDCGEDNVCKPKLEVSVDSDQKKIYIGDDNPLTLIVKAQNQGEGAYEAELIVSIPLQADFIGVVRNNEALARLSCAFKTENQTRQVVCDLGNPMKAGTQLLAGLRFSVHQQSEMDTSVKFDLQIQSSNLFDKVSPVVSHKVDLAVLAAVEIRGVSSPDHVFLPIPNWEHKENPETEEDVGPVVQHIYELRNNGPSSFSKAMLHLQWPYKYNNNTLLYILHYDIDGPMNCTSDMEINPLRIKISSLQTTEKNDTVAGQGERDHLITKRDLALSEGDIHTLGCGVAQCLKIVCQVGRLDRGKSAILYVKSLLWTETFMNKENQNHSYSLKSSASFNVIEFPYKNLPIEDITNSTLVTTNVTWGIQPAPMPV
# T1 sequence (P05106 27-718, chain 2 of 2): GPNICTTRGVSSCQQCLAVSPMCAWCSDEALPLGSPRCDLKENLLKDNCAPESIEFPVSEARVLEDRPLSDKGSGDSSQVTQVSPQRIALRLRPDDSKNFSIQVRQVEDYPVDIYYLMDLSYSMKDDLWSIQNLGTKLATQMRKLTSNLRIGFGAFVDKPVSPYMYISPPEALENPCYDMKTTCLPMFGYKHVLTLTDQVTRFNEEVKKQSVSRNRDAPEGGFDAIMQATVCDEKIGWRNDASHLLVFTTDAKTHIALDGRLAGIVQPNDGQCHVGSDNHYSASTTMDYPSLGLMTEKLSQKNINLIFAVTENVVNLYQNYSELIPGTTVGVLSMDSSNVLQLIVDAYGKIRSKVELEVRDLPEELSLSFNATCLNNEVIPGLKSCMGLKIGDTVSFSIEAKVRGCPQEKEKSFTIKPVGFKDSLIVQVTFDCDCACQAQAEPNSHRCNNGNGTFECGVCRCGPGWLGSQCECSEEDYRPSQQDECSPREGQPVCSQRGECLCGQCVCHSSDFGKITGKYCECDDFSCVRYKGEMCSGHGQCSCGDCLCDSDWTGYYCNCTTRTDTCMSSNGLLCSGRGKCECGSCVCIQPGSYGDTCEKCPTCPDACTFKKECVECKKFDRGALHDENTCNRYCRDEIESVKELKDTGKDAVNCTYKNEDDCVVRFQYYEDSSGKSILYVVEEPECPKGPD
# method-description: ELISA, integrin coated, anti-MICA-HRP
experimental-readout: signal (OD)
One number for each entry, in OD.

Some solved cases for reference:
binder	signal (OD)
soluble MICA generated by pKK39 (loop 3.4 in loop 1) (designed binder) HHHHHHEPHSLRYNLTVLSWDGSVQSGFLTEVHLDGQPFLRCDRQKCRAKPQGQWAEDVLGNKTWDRETRDLTGNGKDLRMTLAHIKDQKEGLHSLQEIRVCEIHEDNSTRSSQHFYYDGELFLSQNLETEEWTMPQSSRAQTLAMNVRNFLKEDAMKTKTHYHAMHADCLQELRRYLKSGVVLRRTVPPMVNVTRSARGDSDHRVTCRASGFYPWNITLSWRQDGVSLSHDTQQWGDVLPDGNGTYQTWVATRICQGEEQRFTCYMEHSGNHSTHPVPSGK	0.482
soluble MICA generated by pKK46 (extended loop 5.1sp in loop 1) (designed binder) HHHHHHEPHSLRYNLTVLSWDGSVQSGFLTEVHLDGQPFLRCDRQKCRAKPQGQWAEDVLGNKTWDRETRDLTGNGKDLRMTLAHIKDQKEGLHSLQEIRVCEIHEDNSTRSSQHFYYDGELFLSQNLETEEWTMPQSSRAQTLAMNVRNFLKEDAMKTKTHYHAMHADCLQELRRYLKSGVVLRRTVPPMVNVTSGGSGGGSVTRGDTFTQSSGGSGGGVTCRASGFYPWNITLSWRQDGVSLSHDTQQWGDVLPDGNGTYQTWVATRICQGEEQRFTCYMEHSGNHSTHPVPSGK	0.384
soluble MICA generated by pKK44 (extended loop 3.2sp in loop 1) (designed binder) HHHHHHEPHSLRYNLTVLSWDGSVQSGFLTEVHLDGQPFLRCDRQKCRAKPQGQWAEDVLGNKTWDRETRDLTGNGKDLRMTLAHIKDQKEGLHSLQEIRVCEIHEDNSTRSSQHFYYDGELFLSQNLETEEWTMPQSSRAQTLAMNVRNFLKEDAMKTKTHYHAMHADCLQELRRYLKSGVVLRRTVPPMVNVTSGGSGGGSTSRGDHPRTQSGGSGGGVTCRASGFYPWNITLSWRQDGVSLSHDTQQWGDVLPDGNGTYQTWVATRICQGEEQRFTCYMEHSGNHSTHPVPSGK	0.41
soluble MICA generated by pKK41 (loop 5.2 in loop 1) (designed binder) HHHHHHEPHSLRYNLTVLSWDGSVQSGFLTEVHLDGQPFLRCDRQKCRAKPQGQWAEDVLGNKTWDRETRDLTGNGKDLRMTLAHIKDQKEGLHSLQEIRVCEIHEDNSTRSSQHFYYDGELFLSQNLETEEWTMPQSSRAQTLAMNVRNFLKEDAMKTKTHYHAMHADCLQELRRYLKSGVVLRRTVPPMVNVTRGDTFTQSVTCRASGFYPWNITLSWRQDGVSLSHDTQQWGDVLPDGNGTYQTWVATRICQGEEQRFTCYMEHSGNHSTHPVPSGK	0.516

Given the entry soluble MICA generated by pKK49 (extended loop 3.3sp in loop 3) (designed binder) EPHSLRYNLTVLSWDGSVQSGFLTEVHLDGQPFLRCDRQKCRAKPQGQWAEDVLGNKTWDRETRDLTGNGKDLRMTLAHIKDQKEGLHSLQEIRVCEIHEDNSTRSSQHFYYDGELFLSQNLETKEWTMPQSSRAQTLAMNVRNFLKEDAMKTKTHYHAMHADCLQELRRYLKSGVVLRRTVPPMVNVTRSEASEGNITVTCRASGFYPWNITLSWRQDGVSLSHDTQQWGDVLPDGNGTYQTWVATRISGGSGGGSRVPRGDSDLTSGGSGGGCYMEHSGNHSTHPVPSGK , report its measured signal.
0.508
